What follows is literature data on IC50 for UniProt P30530.

- Item smiles: "CCc1nc(C(N)=O)c(Nc2ccc3c(c2)OC[C@H]2CN(C)CCN32)nc1NC1CCOCC1"
  IC50: "< 10 nM"
- Item smiles: "COc1cnc2c(Oc3ccc(NC(=O)c4cn(C)c(C)c(C5=CCOCC5)c4=O)cc3F)ccnc2c1"
  IC50: "≤ 100 nM"
- Item smiles: "COC[C@H](C)Nc1ncc2c(-c3ccnc(N4CCN(C(C)=O)CC4)c3)cc([C@H]3CC[C@H](O)CC3)n2n1"
  IC50: "≤ 100 nM"
- Item smiles: "COC[C@H](C)Nc1ncc2c(-c3cnn(CC4CCOCC4)c3)cc([C@H]3CC[C@H](O)CC3)n2n1"
  IC50: "≤ 100 nM"
- Item smiles: "COc1cc2nccc(Oc3ccc(NC(=O)c4c(C)nc(C)c(-c5ccc(F)cn5)c4O)cc3F)c2nc1OC"
  IC50: "≤ 100 nM"
- Item smiles: "CCN1CCN(Cc2ccc(Nc3nc(OCCOC)c4c(-c5ccc(OCc6ncccc6C)cc5F)c[nH]c4n3)cc2)CC1"
  IC50: "< 30 nM"
- Item smiles: "CC[C@H](C)Nc1ncc2c(O[C@H]3CC[C@H](O)CC3)ncc([C@H]3CC[C@H](O)CC3)c2n1"
  IC50: "100 to 1000 nM"
